Values were extracted from paper PMC11053944.

molecular target: human HSP90α-mNeonGreen–p23-mScarlet-I binding (Homo sapiens, UniProt P07900, E47A); experiment: FRET characterization of model inhibitors and ATP on human HSP90α-p23 binding; conditions: 1 µM donor, 2 µM acceptor; read-out: EC50,rel, influence on HSP90αE47A-mNeonGreen–p23-mScarlet-I binding
measurement_name: EC50 (µM)
Write down the numeric answer in µM and omit the unit.

Q: What reported EC50 corresponds to Nc1ncnc2c1ncn2[C@@H]1O[C@H](COP(=O)(O)OP(=O)(O)OP(=O)(O)O)[C@@H](O)[C@H]1O on human HSP90α-mNeonGreen–p23-mScarlet-I binding (Homo sapiens, UniProt P07900, E47A)?
Result: 210

* * *

target: C. albicans HSP90-mNeonGreen (Candida albicans)
Sequence (P46598 whole entry): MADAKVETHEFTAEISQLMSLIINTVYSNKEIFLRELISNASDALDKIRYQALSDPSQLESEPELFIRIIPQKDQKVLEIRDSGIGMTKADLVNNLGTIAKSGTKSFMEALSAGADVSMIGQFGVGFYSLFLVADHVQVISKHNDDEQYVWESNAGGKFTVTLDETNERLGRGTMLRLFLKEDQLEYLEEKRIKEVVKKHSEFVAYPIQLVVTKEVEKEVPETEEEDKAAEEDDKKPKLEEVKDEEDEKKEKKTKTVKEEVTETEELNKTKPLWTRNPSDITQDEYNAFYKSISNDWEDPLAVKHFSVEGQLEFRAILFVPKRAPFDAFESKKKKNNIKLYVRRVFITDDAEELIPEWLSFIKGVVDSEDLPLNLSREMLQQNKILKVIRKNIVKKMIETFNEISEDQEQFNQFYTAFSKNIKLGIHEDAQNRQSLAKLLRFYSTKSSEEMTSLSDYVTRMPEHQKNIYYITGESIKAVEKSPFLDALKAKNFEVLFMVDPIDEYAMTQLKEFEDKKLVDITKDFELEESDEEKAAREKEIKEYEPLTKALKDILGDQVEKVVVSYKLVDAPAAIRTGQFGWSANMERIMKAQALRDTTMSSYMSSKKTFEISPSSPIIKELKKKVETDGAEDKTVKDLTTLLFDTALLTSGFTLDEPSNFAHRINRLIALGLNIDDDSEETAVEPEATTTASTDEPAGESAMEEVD
measurement_name: pKd
Here pKd is given on a logarithmic scale as minus log10 of the concentration in mol/L.

Q: Consider the molecule shown here: Nc1ncnc2c1ncn2[C@@H]1O[C@H](COP(=O)(O)OP(=O)(O)NP(=O)(O)O)[C@@H](O)[C@H]1O What is its recorded pKd?
Result: 3.70
